Reported Particle size (PDI) PC-Chol LNP is given for each of the following compounds.
- assay.text: Particle size and polydispersity of LNP containing prodrug (dynamic light scattering)
- Type: physicochemical
- condition.details: LD-DEX prodrug in PC-Chol LNP; PDI in brackets

Known results for compounds:
CCCCC/C=C\C/C=C\CCCCCCCCOC(=O)CCC(=O)OCC(=O)[C@@]1(O)[C@H](C)C[C@H]2[C@@H]3CCC4=CC(=O)C=C[C@]4(C)[C@@]3(F)[C@@H](O)C[C@@]21C : 64 (0.06) nm
CCCCCCCCCCCCCCCCOC(=O)CCC(=O)OCC(=O)[C@@]1(O)[C@H](C)C[C@H]2[C@@H]3CCC4=CC(=O)C=C[C@]4(C)[C@@]3(F)[C@@H](O)C[C@@]21C : 67 (0.05) nm
CCCCC/C=C\C/C=C\CCCCCCCC(=O)OC[C@H](COC(=O)CCC(=O)OCC(=O)[C@@]1(O)[C@H](C)C[C@H]2[C@@H]3CCC4=CC(=O)C=C[C@]4(C)[C@@]3(F)[C@@H](O)C[C@@]21C)OC(=O)CCCCCCC/C=C\C/C=C\CCCCC : 53 (0.05) nm
CCCCC/C=C\C/C=C\CCCCCCCCOCCCCSCC(=O)[C@@]1(O)[C@H](C)C[C@H]2[C@@H]3CCC4=CC(=O)C=C[C@]4(C)[C@@]3(F)[C@@H](O)C[C@@]21C : 56 (0.03) nm
CCCCCCCC/C=C\CCCCCCCCOC(=O)CCC(=O)OCC(=O)[C@@]1(O)[C@H](C)C[C@H]2[C@@H]3CCC4=CC(=O)C=C[C@]4(C)[C@@]3(F)[C@@H](O)C[C@@]21C : 61 (0.03) nm

*Q* Identify measured Particle size (PDI) PC-Chol LNP corresponding to CCCCC/C=C\C/C=C\CCCCCCCC(=O)OC(COC(=O)CCC(=O)OCC(=O)[C@@]1(O)[C@H](C)C[C@H]2[C@@H]3CCC4=CC(=O)C=C[C@]4(C)[C@@]3(F)[C@@H](O)C[C@@]21C)CN(C)C (stereo partly drawn)
*A* 77 (0.06) nm
